Just for reference, patent US20190225650A1 is where these values come from.

Tested on: HRE-bla ME-180 cells
Assay: Reporter gene assay (HRE-bla ME-180 HIF reporter, GeneBLAzer)
Type: cell-based, human
Settings: 24 hour normoxia
assay metric: EC50

What value of EC50 has been recorded for this entry: CCCC[C@@H]1NC(=O)[C@H](CC(C)C)NC(=O)[C@H](C(C)C)NC(=O)[C@@](C)(NC(=O)[C@H](CCC(=O)O)NC(=O)[C@H](CC(=O)O)NC(=O)[C@@H](NC(=O)[C@H](Cc2ccccc2)NC(C)=O)[C@@H](C)CC)CCCC=CCCCC2(CCCC=CCCC[C@](C)(C(=O)N[C@@H](CCC(N)=O)C(=O)N[C@@H](C)C(=O)N[C@@H](CC(C)C)C(N)=O)NC(=O)[C@H]([C@@H](C)CC)NC(=O)[C@H](C(C)C)NC(=O)[C@H](CC(C)C)NC2=O)NC1=O (stereo partly shown)
5 to 15 µM
